test system: MET; test: MET biochemical kinase assay; set-up: species or system human; concentration or dose not given beside the values
READOUT: Met Kinase % Inhibition (%)
Dear colleague, please return just the value in %, with no unit written.

// solved cases for Met Kinase % Inhibition follow
O=C1Nc2ccc(S(=O)(=O)N3CCOCC3)cc2C1=Cc1cc(Br)ccc1O [10733/F09]; 52.8
CC(C)(C)c1cc(C=C2C(=O)Nc3ccc(I)cc32)cc(C(C)(C)C)c1O [10721/B11]; 6.7
CC(C)(C)c1cc(C=C2C(=O)Nc3c(Br)cc(Br)cc32)c(O)c(C(C)(C)C)c1 [10723/A11]; 60.0
CNS(=O)(=O)c1ccc2c(c1)C(=Cc1ccccc1Sc1ccc(Cl)cc1)C(=O)N2 [10727/D05]; 39.9
CCOC(=O)c1[nH]c(C=C2C(=O)Nc3ccc(CCCl)cc32)c(C(=O)OC)c1C [10726/G03]; 26.8

Find the measured Met Kinase % Inhibition: item O=C1Nc2ccc(I)cc2C1=Cc1cc(O)ccc1O [10727/B10] , target or system MET. 99.2

Find the measured Met Kinase % Inhibition: item CNS(=O)(=O)c1ccc2c(c1)C(=Cc1sc3scc(C)c3c1C)C(=O)N2 [10724/D11] , target or system MET. 20.3

Find the measured Met Kinase % Inhibition: item COc1c(C(C)(C)C)cc(C=C2C(=O)Nc3ccc(S(=O)(=O)Nc4ccc(C(F)(F)F)cc4)cc32)cc1C(C)(C)C [10733/E04] , target or system MET. 17.5

====

test system: MET; assay: MET biochemical kinase assay; parameters: species or system human; concentration or dose not given beside the values
Readings of Met Kinase % Inhibition for the listed compounds
Dear colleague, please return just the value in %, with no unit written.

// solved cases for Met Kinase % Inhibition follow
CNS(=O)(=O)c1ccc2c(c1)C(=Cc1ccc(O)cc1O)C(=O)N2; 53.5
O=C1Nc2ccc(S(=O)(=O)N3CCOCC3)cc2C1=Cc1ccc(Br)cc1; 64.0
CC(C)(C)c1ccc(C=C2C(=O)Nc3ccc(CCCl)cc32)cc1; 19.3

Requested field: Met Kinase % Inhibition. Item: CNS(=O)(=O)c1ccc2c(c1)C(=Cc1ccc(OCc3ccccc3)c(C(C)(C)C)c1)C(=O)N2 24.3

Requested field: Met Kinase % Inhibition. Item: CCCCN(CCCC)c1ccc(C=C2C(=O)Nc3ccc(S(=O)(=O)Nc4ccc(C(F)(F)F)cc4)cc32)cc1 86.6

Requested field: Met Kinase % Inhibition. Item: CNS(=O)(=O)c1ccc2c(c1)C(=Cc1ccc(OC(C)=O)c(OC(C)=O)c1)C(=O)N2 54.5

Requested field: Met Kinase % Inhibition. Item: Cc1c(Br)ccc2c1C(=C1C(=O)N(C)c3ccccc31)C(=O)N2 23.3

Requested field: Met Kinase % Inhibition. Item: O=C1Nc2ccc(F)cc2C1=C1C(=O)Nc2c(Br)cc(Br)cc21 63.1

====

target: EGFR (Homo sapiens, UniProt P00533); construct: Add 7 ug A431 cell lysate per well (EGFR source); endogenous in cells; host or cells: A431; test: EGFR ELISA assay (in vitro kinase activity, EGFR captured from A431 cell lysate); format: biochemical; parameters: concentration or dose not given beside the values
Sequence (P00533 25-1210): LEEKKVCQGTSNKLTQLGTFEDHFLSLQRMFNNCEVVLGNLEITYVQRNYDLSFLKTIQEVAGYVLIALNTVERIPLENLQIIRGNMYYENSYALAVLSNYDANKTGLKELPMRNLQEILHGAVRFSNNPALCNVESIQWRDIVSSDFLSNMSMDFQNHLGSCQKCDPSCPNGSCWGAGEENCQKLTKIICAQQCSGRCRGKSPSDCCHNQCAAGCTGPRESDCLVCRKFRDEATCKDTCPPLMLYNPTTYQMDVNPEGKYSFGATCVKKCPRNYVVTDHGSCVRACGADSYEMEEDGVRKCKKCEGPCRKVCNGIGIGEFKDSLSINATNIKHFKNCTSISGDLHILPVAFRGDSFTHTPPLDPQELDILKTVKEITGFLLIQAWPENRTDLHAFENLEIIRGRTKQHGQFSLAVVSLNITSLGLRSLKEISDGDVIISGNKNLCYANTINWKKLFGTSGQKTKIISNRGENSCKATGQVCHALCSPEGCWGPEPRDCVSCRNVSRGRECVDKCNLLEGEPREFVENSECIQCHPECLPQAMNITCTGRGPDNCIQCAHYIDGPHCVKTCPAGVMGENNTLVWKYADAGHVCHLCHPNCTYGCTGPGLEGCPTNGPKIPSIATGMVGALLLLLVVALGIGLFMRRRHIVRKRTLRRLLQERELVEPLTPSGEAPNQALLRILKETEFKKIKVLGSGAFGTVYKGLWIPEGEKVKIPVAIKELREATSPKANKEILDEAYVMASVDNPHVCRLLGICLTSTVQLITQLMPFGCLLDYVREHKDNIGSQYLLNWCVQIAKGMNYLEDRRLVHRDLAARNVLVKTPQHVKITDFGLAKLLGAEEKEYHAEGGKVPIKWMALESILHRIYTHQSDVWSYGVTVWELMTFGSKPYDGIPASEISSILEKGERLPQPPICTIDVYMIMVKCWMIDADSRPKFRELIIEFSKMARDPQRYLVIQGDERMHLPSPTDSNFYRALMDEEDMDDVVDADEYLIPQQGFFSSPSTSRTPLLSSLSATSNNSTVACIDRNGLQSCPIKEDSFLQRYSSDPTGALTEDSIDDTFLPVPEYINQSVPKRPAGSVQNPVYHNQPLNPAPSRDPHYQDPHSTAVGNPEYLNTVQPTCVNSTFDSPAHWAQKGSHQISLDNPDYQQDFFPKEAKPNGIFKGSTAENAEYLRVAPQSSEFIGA
READOUT: Biochem EGFR %Inhibition
Enter the number, and then the unit.

// solved cases for Biochem EGFR %Inhibition follow
CNS(=O)(=O)c1ccc2c(c1)C(=Cc1ccc(N3CCN(C=O)CC3)cc1)C(=O)N2; -25.8%
Cc1c(Br)ccc2c1C(=Cc1cccc(F)c1O)C(=O)N2; 35.1%
CCn1c2ccccc2c2cc(C=C3C(=O)Nc4ccc(Br)c(C)c43)ccc21; -6.9%
O=C1Nc2c(Br)cc(Br)cc2C1=Cc1cccc(C(F)(F)F)c1F; 59.6%
O=C1Nc2ccc(I)cc2C1=Cc1cc(Br)ccc1O; 21.1%

Requested field: Biochem EGFR %Inhibition. Item: COc1c(Br)cc(C=C2C(=O)Nc3c(Br)cc(Br)cc32)cc1C(C)(C)C -0.3%

Requested field: Biochem EGFR %Inhibition. Item: CCc1c(C)[nH]c(C=C2C(=O)Nc3ccc(CCCl)cc32)c1C 4.0%

Requested field: Biochem EGFR %Inhibition. Item: O=C1Nc2ccc(CCCl)cc2C1=Cc1ccc([N+](=O)[O-])o1 -4.9%

Requested field: Biochem EGFR %Inhibition. Item: O=C1Nc2ccc(S(=O)(=O)N3CCOCC3)cc2C1=Cc1cc(Br)ccc1O 30.1%

Requested field: Biochem EGFR %Inhibition. Item: Cc1cc(C=C2C(=O)Nc3ccc(I)cc32)cc(C)c1OCc1ccccc1 32.7%

Requested field: Biochem EGFR %Inhibition. Item: CC(C)c1ccc2occ(C=C3C(=O)Nc4ccc(CCCl)cc43)c(=O)c2c1 18.5%

Requested field: Biochem EGFR %Inhibition. Item: Cc1ccc2occ(C=C3C(=O)Nc4ccc(S(=O)(=O)Nc5ccc(C(F)(F)F)cc5)cc43)c(=O)c2c1 10.4%

Requested field: Biochem EGFR %Inhibition. Item: CC(C)(C)c1cc(C=C2C(=O)Nc3ccc(S(=O)(=O)N4CCOCC4)cc32)cc(Br)c1OCc1ccccc1 -11.9%

Requested field: Biochem EGFR %Inhibition. Item: COc1cc(OC)c(OC)cc1C=C1C(=O)Nc2c(Br)cc(Br)cc21 34.4%

Requested field: Biochem EGFR %Inhibition. Item: COc1ccc2ccccc2c1C=C1C(=O)Nc2ccc(I)cc21 34.9%

Requested field: Biochem EGFR %Inhibition. Item: CCOC(=O)c1[nH]c(C=C2C(=O)Nc3ccc(S(=O)(=O)Nc4ccc(C(F)(F)F)cc4)cc32)c(C(=O)OC)c1C -15.9%

Requested field: Biochem EGFR %Inhibition. Item: O=C1Nc2c(Br)cc(Br)cc2C1=Cc1ccc(F)cc1Cl 2.2%

Requested field: Biochem EGFR %Inhibition. Item: Cc1c(Br)ccc2c1C(=Cc1ccc(C#N)cc1)C(=O)N2 16.6%
